Ref: patent US20120220665A1

# measured-on: human dopamine transporter (hDAT) (Homo sapiens)
# Construct: expressed in transfected cells; host or cells: HEK-293, stably transfected; membranes
# Sequence (Q01959 whole entry): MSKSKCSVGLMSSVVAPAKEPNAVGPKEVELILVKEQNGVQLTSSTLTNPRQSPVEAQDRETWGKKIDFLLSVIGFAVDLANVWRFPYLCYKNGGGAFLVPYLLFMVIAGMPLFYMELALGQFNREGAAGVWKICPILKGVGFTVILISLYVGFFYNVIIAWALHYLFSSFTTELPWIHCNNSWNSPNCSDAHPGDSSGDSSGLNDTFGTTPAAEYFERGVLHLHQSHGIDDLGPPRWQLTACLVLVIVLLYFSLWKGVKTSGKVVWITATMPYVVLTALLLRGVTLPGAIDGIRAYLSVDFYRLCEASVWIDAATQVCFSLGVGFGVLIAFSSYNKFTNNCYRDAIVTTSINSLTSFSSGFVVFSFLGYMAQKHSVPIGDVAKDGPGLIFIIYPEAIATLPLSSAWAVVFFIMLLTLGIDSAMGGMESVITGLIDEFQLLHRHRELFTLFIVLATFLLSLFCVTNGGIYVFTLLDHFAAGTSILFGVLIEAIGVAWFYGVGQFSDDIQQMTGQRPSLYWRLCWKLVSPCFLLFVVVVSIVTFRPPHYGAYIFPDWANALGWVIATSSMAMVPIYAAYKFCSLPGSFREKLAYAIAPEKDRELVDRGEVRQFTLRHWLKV
# method-summary: Human transporter radioligand binding, hDAT ([3H]WIN35428, HEK-293 membranes)
# condition-parameters: HCl salts of test compounds; n ≥ 3, values marked b n = 1; read-out: Equilibrium Dissociation Constant (KD) for Transporter Binding (Geometric Mean; nM ± SEM) hDAT (D)
experimental-endpoint: Kd (nM)

Worked examples, 2 molecules total:
CNC[C@H](c1ccc2ccccc2c1)[C@@H](OCCCCCCCO[C@@H](c1ccccc1)[C@H](CNC)c1ccc2ccccc2c1)c1ccccc1 = 180
CNC[C@@H](c1ccccc1)[C@@H](O)c1ccc2ccccc2c1 = 5800

P = CN(C)C[C@H](c1ccc2ccccc2c1)[C@@H](Cl)c1ccccc1
Q = CN(C)C[C@H](c1ccc2ccccc2c1)[C@H](Cl)c1ccccc1
Problem: Sorting by Kd in descending order, would P or Q appear first? Answer with the label corresponding to your selection.
Result: P

* * *

# measured-on: human dopamine transporter (hDAT) (Homo sapiens)
# Construct: expressed in transfected cells; host or cells: HEK-293, stably transfected; membranes
# method-summary: Human transporter radioligand binding, hDAT ([3H]WIN35428, HEK-293 membranes)
# condition-parameters: HCl salts of test compounds; n ≥ 3, values marked b n = 1; read-out: Equilibrium Dissociation Constant (KD) for Transporter Binding (Geometric Mean; nM ± SEM) hDAT (D)
experimental-endpoint: Kd (nM)

CNCC(c1ccccc1)C(O)c1ccc(Br)cc1 (stereo not drawn) [MCJ001-Br—Ph—OH-RS/SR] = 1520
CNC[C@H](c1ccc2ccccc2c1)[C@H](O)c1ccc(F)cc1 [MCJ001-4F—Ph—OH-SS/RR] = 90
CNC[C@H](c1ccc2ccccc2c1)[C@@H](O)c1ccc(F)cc1 [MCJ001-4F—Ph—OH-RS/SR] = 250
CNCC(c1ccccc1)C(O)c1ccc(Br)cc1 (stereo not drawn) [MCJ001-Br—Ph—OH-SS/RR] = 28400
CNC[C@H](c1ccccc1)[C@@H](O)c1ccc(F)cc1 [MCJ001-F—Ph—OH-RS/SR] = 75200

a = CN(C)C[C@H](c1ccc2ccccc2c1)[C@@H](F)c1ccccc1 [MCJ002-F-RS]
b = CNC[C@H](c1ccccc1)[C@H](O)c1ccc(F)cc1 [MCJ001-F—Ph—OH-SS/RR]
Problem: Sorting by Kd in descending order, would a or b appear first? Answer with the label corresponding to your selection.
Result: a
(a: 280 nM, b: 107 nM)

* * *

# System: hSERT (S), hNET (N), hDAT (D)
# method-summary: Comparison of binding potency across the three human transporters
# condition-parameters: S = hSERT, N = hNET, D = hDAT; order by KD
experimental-endpoint: Potency (rank order of transporter binding)

CCOc1ccccc1OC(c1ccccc1)C1CNCCO1 (stereo not drawn) [Reboxetine, reference compound] = N > S > D
CNC[C@H](c1ccc2ccccc2c1)[C@H](O)c1ccccc1 = N > S > D
CN(C)C[C@H](c1ccc2ccccc2c1)[C@@H](Cl)c1ccccc1 = S > N > D
CN(C)C[C@H](c1ccc2ccccc2c1)[C@H](Cl)c1ccccc1 = S > N > D
CNCC[C@H](Oc1cccc2ccccc12)c1cccs1 [Duloxetine, reference compound] = S > N > D

Shift focus to the following entry.
Problem: Param item = CN(C)CCCN1c2ccccc2CCc2ccccc21 [Imipramine, reference compound] ; retrieve measured Potency (rank order of transporter binding).
Result: S > N > D
